Where do the numbers come from? From the supplement of paper PMC10567573.

Assign protein stability index to each entry below.
B1: MMP1 (parent)
chain: YTPDLPRADVDHAIEKAFQLWSNV

- Variants of: B1
- assay.remarks: protein stability index of a GFP-peptide fusion (GPS, HEK-293T) (PSI 1-6); higher = more stable;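 further: lentivirally expressed fusions sorted by FACS into six bins by GFP to DsRed ratio, PSI derived from sequencing read proportions per bin multiplied by bin number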
- test.parameters: c terminus: a fixed tail appended

protein stability index in this record for YTPDCPRADVDHAIEKAFQLWSNV [L5C] : 1.84

Record summary for YTPDLPRADVDHAIEKAFQRWSNV [L20R] : reported protein stability index = 1.99

// sample YTPNLPRADVDHAIEKAFQLWSNV [D4N] , its protein stability index was 2.56

Form field protein stability index, entry YTPDLPRADVDHAKEKAFQLWSNV [I14K] : 2.14

// sample YTPDPPRADVDHAIEKAFQLWSNV [L5P] , its protein stability index was 1.81

Record YVPDLPRADVDHAIEKAFQLWSNV [T2V] , field protein stability index: 1.95

Entry YTPDLPRADVDHAIEHAFQLWSNV [K16H] — recorded protein stability index = 2.06

The recorded protein stability index for YTPDDPRADVDHAIEKAFQLWSNV [L5D] is 2.34

# variant YTPDLPRADVKHAIEKAFQLWSNV [D11K] ; its protein stability index = 2.21

Measured protein stability index of YTPDLPRADVDHAIEKAFQLMSNV [W21M] : 3.03

// protein stability index value for YTPDLPRADVDHAIEKAFQNWSNV [L20N] : 2.19

Entry YTPDLPRAEVDHAIEKAFQLWSNV [D9E] — recorded protein stability index = 1.75

Looking up YTPDLPRADVDHAIEKAFQLWSNF [V24F] , I see its protein stability index listed as 1.83

The value of protein stability index measured for the variant YTPDLPRADVDHAIEKAFQIWSNV [L20I] turned out to be 2.16

// protein stability index lookup, variant = YTPDLPRCDVDHAIEKAFQLWSNV [A8C] , result: 2.07

The variant listed as YTPDLPRADVDHWIEKAFQLWSNV [A13W] has a reported protein stability index of 2.06

get_value(item= YTPDLPRADVDHAIEAAFQLWSNV [K16A] , readout=protein stability index) returns 2.07

Item: LTPDLPRADVDHAIEKAFQLWSNV [Y1L] | protein stability index: 2.87

Field protein stability index (entry YTPDLPRADVDHAIEKAFQLWSYV [N23Y] ) reads 1.43

# protein stability index (variant: YTPDLPRADSDHAIEKAFQLWSNV [V10S] ) is 1.88

The value of protein stability index measured for the variant YTPDLPRADVDHAIEKAFQLWENV [S22E] turned out to be 2.75

Summary for this variant, YTPDLPRANVDHAIEKAFQLWSNV [D9N] : protein stability index is 1.59

Summary for this variant, YTPDRPRADVDHAIEKAFQLWSNV [L5R] : protein stability index is 2.49

Input YTPDLPRADVDHNIEKAFQLWSNV [A13N] . Output protein stability index: 2.11

Please fill in: protein stability index reported for YTPDLPRADIDHAIEKAFQLWSNV [V10I] = 1.76

Record YTPDLPRADVDHAIELAFQLWSNV [K16L] . Reported protein stability index: 1.52

protein stability index recorded for this variant, YTSDLPRADVDHAIEKAFQLWSNV [P3S] , is 2.36

The variant listed as YTPDLPRADVDHAIEKAFQYWSNV [L20Y] has a reported protein stability index of 1.78

YTNDLPRADVDHAIEKAFQLWSNV [P3N] has a reported protein stability index of 2.5
